# System: 857933-349-R-J2-PDC complex spheroids, viability
# EXPERIMENTAL_DETAILS: Anticancer human tumor 857933-349-R-J2-PDC patient-derived colon adenocarcinoma cell line growth inhibition [GQUAD]
# STUDY_CONDITIONS: second compound 0.316 µM; first compound 0.00316 µM; hits give low values
// classify: if (viability, T/C < 30%) class 1 else class 0

Take a look at these entries with their results.
Cc1[nH]c2ccccc2c1CCNCc1ccc(/C=C/C(=O)NO)cc1 + Cc1[nH]c2ccc(F)cc2c1-c1nc2c3cccnc3c3ncccc3c2[nH]1 = class 0
CC[C@@]1(O)C(=O)OCc2c1cc1n(c2=O)Cc2cc3c(CN(C)C)c(O)ccc3nc2-1 + Cc1cnc(CNC(=O)c2c(=O)c3ccc(N4CCCN(C)CC4)nc3n3c2sc2ccccc23)cn1 = class 1
Cc1[nH]c2ccccc2c1CCNCc1ccc(/C=C/C(=O)NO)cc1 + Cc1cnc(CNC(=O)c2c(=O)c3ccc(N4CCCN(C)CC4)nc3n3c2sc2ccccc23)cn1 = class 1
CCc1c2c(nc3ccc(O)cc13)-c1cc3c(c(=O)n1C2)COC(=O)[C@]3(O)CC + Cc1[nH]c2ccc(F)cc2c1-c1nc2c3cccnc3c3ncccc3c2[nH]1 = class 0
CC[C@@]1(O)C(=O)OCc2c1cc1n(c2=O)Cc2cc3c(CN(C)C)c(O)ccc3nc2-1 + Cc1[nH]c2ccc(F)cc2c1-c1nc2c3cccnc3c3ncccc3c2[nH]1 = class 0

Below: the item to evaluate.
Quick check: viability, T/C of Cn1ncnc1[C@H]1c2n[nH]c(=O)c3cc(F)cc(c23)N[C@@H]1c1ccc(F)cc1 + Cc1cnc(CNC(=O)c2c(=O)c3ccc(N4CCCN(C)CC4)nc3n3c2sc2ccccc23)cn1 under 30%?
class 1

----------
// reported viability, T/C for each item listed
# Tested on: 857933-349-R-J2-PDC complex spheroids, viability
# EXPERIMENTAL_DETAILS: Anticancer human tumor 857933-349-R-J2-PDC cell line growth inhibition [GQUAD];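 further: spheroids exposed to compounds for one week before readout; percent viability relative to vehicle DMSO wells taken as 100%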
# STUDY_CONDITIONS: second compound 1 µM; first compound 1 µM; hits give low values
Your answer is read as %, so omit the unit and give the number.

Some entries whose results are on file:
COc1cc(C2c3cc4c(cc3C(OC3OC5COC(C)OC5C(O)C3O)C3COC(=O)C23)OCO4)cc(OC)c1O (stereo unspecified) + Cc1[nH]c2ccc(F)cc2c1-c1nc2c3cccnc3c3ncccc3c2[nH]1 = 63.1
CC1COCCN1c1cc(-c2ccnn2C)c2ccnc(-c3ccn[nH]3)c2n1 (stereo unspecified) + Cc1[nH]c2ccc(F)cc2c1-c1nc2c3cccnc3c3ncccc3c2[nH]1 = 43.1
CC1COCCN1c1cc(C2(O)CC3CCC(C2)O3)c2cnn(-c3ccn[nH]3)c2n1 (stereo unspecified) + Cc1cnc(CNC(=O)c2c(=O)c3ccc(N4CCCN(C)CC4)nc3n3c2sc2ccccc23)cn1 = 2.14
CC1COCCN1c1cc(C2(O)CC3CCC(C2)O3)c2cnn(-c3ccn[nH]3)c2n1 (stereo unspecified) + CN(C)c1ccc(Nc2c3ccc(NC(=O)CCN4CCCC4)cc3nc3cc(NC(=O)CCN4CCCC4)ccc23)cc1 = 54.6
COc1ccc([C@@H](O)c2cc(-c3ncnc4cc(N5CCOCC5)ccc34)c(F)cc2Cl)nn1 + CN(C)c1ccc(Nc2c3ccc(NC(=O)CCN4CCCC4)cc3nc3cc(NC(=O)CCN4CCCC4)ccc23)cc1 = 85.4

Which viability, T/C is listed for Nc1ccn(C2OC(CO)C(O)C2(F)F)c(=O)n1 (stereo unspecified) + Cc1[nH]c2ccc(F)cc2c1-c1nc2c3cccnc3c3ncccc3c2[nH]1 ?
10.6
